log10 of kcat/Km values, listed per item
- Substrate: O=[N+]([O-])c1ccc(O[C@@H]2O[C@H](CO)[C@@H](O)[C@H](O)[C@H]2O)cc1
- procedure_summary: purified protein
- cond: pH 10.0, glycine-NaOH, 30 °C
outcome_measure: log10 of kcat/Km (log10 of the value in M⁻¹ s⁻¹)

protein="Bgl1D (uncultured microorganism; F68L/I70M) (protein) MSLFFTFNPLEIVPTRVIGVPNHYQNYSWCNFQNGDYPFIDGIDINLIYQVKVGIPIVVRLETVATILNMLIPHLSESERDYIKRVYDYLRLDGRTSQSSYFFGPVDSQKIGLILRKYFFEWSSQMTYECLSGKVRGIAAPDKLVSEMNEIYNELMKVFNGDVSNIVNIGVN" outcome_measure="log10 of kcat/Km" endpoint_result=4.74
protein="Bgl1D (uncultured microorganism; D44E/F68L/I70M/R91G/Y37H) (protein) MSLFFTFNPLEIVPTRVIGVPNHYQNYSWCNFQNGDHPFIDGIEINLIYQVKVGIPIVVRLETVATILNMLIPHLSESERDYIKRVYDYLGLDGRTSQSSYFFGPVDSQKIGLILRKYFFEWSSQMTYECLSGKVRGIAAPDKLVSEMNEIYNELMKVFNGDVSNIVNIGVN" outcome_measure="log10 of kcat/Km" endpoint_result=5.47
protein="Bgl1D (uncultured microorganism) (protein) MSLFFTFNPLEIVPTRVIGVPNHYQNYSWCNFQNGDYPFIDGIDINLIYQVKVGIPIVVRLETVATIFNILIPHLSESERDYIKRVYDYLRLDGRTSQSSYFFGPVDSQKIGLILRKYFFEWSSQMTYECLSGKVRGIAAPDKLVSEMNEIYNELMKVFNGDVSNIVNIGVN" outcome_measure="log10 of kcat/Km" endpoint_result=4.39
protein="Bgl1D (uncultured microorganism; L115N/S28T) (protein) MSLFFTFNPLEIVPTRVIGVPNHYQNYTWCNFQNGDYPFIDGIDINLIYQVKVGIPIVVRLETVATIFNILIPHLSESERDYIKRVYDYLRLDGRTSQSSYFFGPVDSQKIGLINRKYFFEWSSQMTYECLSGKVRGIAAPDKLVSEMNEIYNELMKVFNGDVSNIVNIGVN" outcome_measure="log10 of kcat/Km" endpoint_result=4.21
protein="Bgl1D (uncultured microorganism; E154G/I57K/S28P) (protein) MSLFFTFNPLEIVPTRVIGVPNHYQNYPWCNFQNGDYPFIDGIDINLIYQVKVGIPKVVRLETVATIFNILIPHLSESERDYIKRVYDYLRLDGRTSQSSYFFGPVDSQKIGLILRKYFFEWSSQMTYECLSGKVRGIAAPDKLVSEMNEIYNGLMKVFNGDVSNIVNIGVN" outcome_measure="log10 of kcat/Km" endpoint_result=4.61
